Values were extracted from the supplement of paper PMC10567573.

protein stability index: recorded values
B1: PPEF2 (parent)
chain: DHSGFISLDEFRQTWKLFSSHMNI

- Variants of: B1
- measurement-protocol: protein stability index of a GFP-peptide fusion (GPS, HEK-293T) (PSI 1-6); higher = more stable;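 also: lentivirally expressed fusions sorted by FACS into six bins by GFP to DsRed ratio, PSI derived from sequencing read proportions per bin multiplied by bin number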
- recorded-conditions: c terminus: a fixed tail appended

- input-sequence: "DHSGFISLDEFRQHWKLFSSHMNI [T14H]"
  protein stability index: 2
- input-sequence: "DHSGFISLDEFRQTWKLFSSNMNI [H21N]"
  protein stability index: 2.01
- input-sequence: "DHSGFISLDEFRQTWKLFSSHMNY [I24Y]"
  protein stability index: 2.04
